Test Readout: melting point

Known results for compounds:
- Compound: "O=C1Nc2ccccc2N2C(=O)OCC12 (stereo unspecified)"
  melting point: "230 to 231 °C"
- Compound: "CN(C(=O)C(C)(C)c1cc(C(F)(F)F)cc(C(F)(F)F)c1)c1cnc(NCCO)cc1-c1ccccc1Cl"
  melting point: "117 to 118 °C"
- Compound: "Cc1cc(-c2ccc(S(N)(=O)=O)cc2)n(-c2ccc(F)cc2)c1Cl"
  melting point: "119 to 120 °C"
- Compound: "FC(F)(F)c1cnc(Cc2ccc(Cl)cc2)c(Cl)c1"
  melting point: "54 to 56 °C"
- Compound: "CNCC1(C)Cc2c(C)c(N3CCN(c4ccc(OC)cc4)CC3)c(C)c(C)c2O1 (stereo unspecified)"
  melting point: "107 to 113 °C"
- Compound: "Cc1c(C(=O)Nc2ccc(OCCCN3CCOCC3)c(C#N)c2)cnn1-c1ccc(Cl)cc1"
  melting point: "155 to 157 °C"
- Compound: "COc1cnc(CS(C)=O)nc1OC(=O)N(C)C (stereo unspecified)"
  melting point: "122 °C"
- Compound: "O=C1Cc2cc(NC(=O)C(=O)N3CCC(COc4ccccc4)CC3)ccc2N1"
  melting point: "200 to 202 °C"
- Compound: "CCN1C(=O)c2cnc(-c3ccccc3)nc2N(C(=O)CCl)c2ccccc21"
  melting point: "147 to 148 °C"
- Compound: "CCOC(=O)c1cnc2c(SC(=O)N3CCN(c4ccccc4OC)CC3)cccn2c1=O"
  melting point: "151 to 153 °C"

Record summary for CCCCC/C(=C/C=C/C(=O)Oc1ccc([N+](=O)[O-])cc1)c1cccc(F)c1 : reported melting point = 50 to 51 °C

Record summary for CN(C)S(=O)(=O)c1cc(C(=O)O)cc(NCc2ccccc2)c1Oc1ccccc1 : reported melting point = 205 to 206 °C

Record summary for C[C@]1(COc2ccc(N3CCN(CC=Cc4ccc(Cl)c(Cl)c4)CC3)cc2)Cn2cc([N+](=O)[O-])nc2O1 : reported melting point = 205 to 206 °C
